Test target: HLA-A*03:01
Experiment description: IEDB peptide-MHC binding, purified MHC/direct/fluorescence; filed as Kd, often an IC50 or EC50 that approximates it; bounds were set here for any values at or beyond the usual limits of such assays
Measurement context: source organism: Vibrio vulnificus
Recorded metric: Kd

Dear colleague, please send me the reported Kd for STDTRHIPQ when you can.
≥ 20 µM

====

Test target: HLA-B*15:01
Experiment description: IEDB peptide-MHC binding, purified MHC/direct/fluorescence; filed as Kd, often an IC50 or EC50 that approximates it; bounds were set here for any values at or beyond the usual limits of such assays
Measurement context: source organism: Yersinia enterocolitica
Recorded metric: pKd
Lab note — pKd values are minus log10 of concentrations in M.

Recall and state the measured pKd for IMDASSFTL .
6.86

====

Test target: HLA-A*26:01
Experiment description: IEDB peptide-MHC binding, purified MHC/direct/fluorescence; filed as Kd, often an IC50 or EC50 that approximates it; bounds were set here for any values at or beyond the usual limits of such assays
Measurement context: source organism: Escherichia coli O157:H7
Recorded metric: pKd
// returns pKd (minus log10 of molar concentration), number only

Indicate the recorded pKd value for this sequence: ITAGYNRYY
6.69

====

Reported Kd values follow for various sequences
Test target: HLA-B*54:01
Experiment description: IEDB peptide-MHC binding, purified MHC/competitive/radioactivity; filed as Kd, often an IC50 or EC50 that approximates it; bounds were set here for any values at or beyond the usual limits of such assays
Measurement context: source organism: Triticum aestivum
Just the number in µM, nothing appended.

Chain sequence: LPAMCNVYI
Unit abbrev: µM
Kd: 0.182

Entry LPYPQPQL needs its Kd filled in; supply it.
1.39

====

Test target: HLA-A*26:03
Experiment description: IEDB peptide-MHC binding, purified MHC/competitive/fluorescence; filed as Kd, often an IC50 or EC50 that approximates it; bounds were set here for any values at or beyond the usual limits of such assays
Measurement context: source organism: Yersinia pestis Nepal516
pKd: −log10 of the molar value.
Recorded metric: pKd

Kindly indicate its recorded pKd. Item: QWSPGPGRL
≤ 4.70

====

Test target: HLA-A*02:02
Experiment description: IEDB peptide-MHC binding, purified MHC/competitive/radioactivity; filed as Kd, often an IC50 or EC50 that approximates it; bounds were set here for any values at or beyond the usual limits of such assays
Measurement context: source organism: Hepacivirus hominis
pKd: −log10 of the molar value.
Recorded metric: pKd

Return the recorded pKd value; entry: HSKRKCDEL
≤ 4.36

====

Test target: HLA-B*07:02
Experiment description: IEDB peptide-MHC binding, purified MHC/competitive/fluorescence; bounds were set here for any values at or beyond the usual limits of such assays
Measurement context: source organism: Vaccinia virus
Recorded metric: IC50 (µM)
I only need the number, in µM, no unit after it.

Output reported IC50 of the sequence INPIVKTSL on HLA-B*07:02.
21.1

====

Test target: HLA-A*02:12
Experiment description: IEDB peptide-MHC binding, purified MHC/direct/fluorescence; filed as Kd, often an IC50 or EC50 that approximates it; bounds were set here for any values at or beyond the usual limits of such assays
Measurement context: source organism: Vibrio parahaemolyticus AQ3810
Recorded metric: pKd
# pKd = -log10(concentration in molar units)

Report pKd on HLA-A*02:12 for this entry: MQGKDFNHL
5.92

====

Test target: HLA-A*01:01
Experiment description: IEDB peptide-MHC binding, purified MHC/direct/fluorescence; filed as Kd, often an IC50 or EC50 that approximates it; bounds were set here for any values at or beyond the usual limits of such assays
Measurement context: source organism: Yellow fever virus
pKd: −log10 of the molar value.
Recorded metric: pKd

Let me know recorded pKd for ERWFVRNPF , thanks.
≤ 4.70

====

Test target: HLA-A*26:01
Experiment description: IEDB peptide-MHC binding, purified MHC/direct/fluorescence; filed as Kd, often an IC50 or EC50 that approximates it; bounds were set here for any values at or beyond the usual limits of such assays
Measurement context: source organism: Salmonella enterica
pKd: −log10 of the molar value.
Recorded metric: pKd

Report its pKd with HLA-A*26:01 as the test system: QTDDGVRFT
≤ 4.70

====

Test target: HLA-B*08:01
Experiment description: IEDB peptide-MHC binding, purified MHC/direct/fluorescence; filed as Kd, often an IC50 or EC50 that approximates it; bounds were set here for any values at or beyond the usual limits of such assays
Measurement context: source organism: Salmonella enterica
Recorded metric: Kd

Tell me its Kd given QTDDGVRFT as the entry.
≥ 20 µM

====

Test target: HLA-C*08:02
Experiment description: IEDB peptide-MHC binding, purified MHC/direct/fluorescence; filed as Kd, often an IC50 or EC50 that approximates it; bounds were set here for any values at or beyond the usual limits of such assays
Measurement context: source organism: Pseudomonas aeruginosa PACS2
pKd: −log10 of the molar value.
Recorded metric: pKd

Quick one: give measured pKd for IVHPPMLYM
≤ 4.70

====

Test target: HLA-A*02:03
Experiment description: IEDB peptide-MHC binding, purified MHC/competitive/radioactivity; filed as Kd, often an IC50 or EC50 that approximates it; bounds were set here for any values at or beyond the usual limits of such assays
Measurement context: source organism: SARS coronavirus Tor2
pKd: −log10 of the molar value.
// label = 1 if pKd is not less than 7, otherwise 0

Chain sequence: RILGAGCFV
Assigned category: 1

Chain sequence: ILFLTLIVFT
Assigned category: 0

Chain sequence: FLWLLWPVTL
Assigned category: 1

Chain sequence: LVFLILCFT
Assigned category: 0

Chain sequence: LLVAAGMEA
Assigned category: 1

# bool: pKd of KLWAQCVQL >= 7
0

====

Test target: HLA-B*15:17
Experiment description: IEDB peptide-MHC binding, purified MHC/competitive/fluorescence; filed as Kd, often an IC50 or EC50 that approximates it; bounds were set here for any values at or beyond the usual limits of such assays
Measurement context: source organism: Zaire ebolavirus
pKd: −log10 of the molar value.
Recorded metric: pKd

Annotate the sequence NSTHNTPVY with its measured pKd.
≤ 4.70

Assign pKd to the following record: GRYNLISPK
≤ 4.70

Specify measured pKd for SLLHESTLK .
≤ 4.70

====

Test target: HLA-B*48:01
Experiment description: IEDB peptide-MHC binding, purified MHC/direct/fluorescence; filed as Kd, often an IC50 or EC50 that approximates it; bounds were set here for any values at or beyond the usual limits of such assays
Measurement context: source organism: Salmonella enterica subsp. enterica serovar Paratyphi A str. ATCC 9150
Recorded metric: Kd (nM)
Unit nM implied. Number only.

Note down Kd recorded for AQAELDAAF
696

====

Listed sequences paired with reported pKd
Test target: HLA-A*30:02
Experiment description: IEDB peptide-MHC binding, purified MHC/competitive/radioactivity; filed as Kd, often an IC50 or EC50 that approximates it; bounds were set here for any values at or beyond the usual limits of such assays
Measurement context: source organism: Mammarenavirus lassaense
# pKd: negative log10 of molar concentration; output just the value

Here are 2 sequences together with their reported answers.
Chain sequence: PEDPVEVALY
pKd: 5.84
--
Chain sequence: YEEFCNAVY
pKd: 6.12

Kindly review the next sequence as well.
Using known records, supply pKd for VGRAWENTI
7.00

====

Test target: HLA-A*31:01
Experiment description: IEDB peptide-MHC binding, purified MHC/competitive/fluorescence; bounds were set here for any values at or beyond the usual limits of such assays
Measurement context: source organism: Monodelphis domestica
Recorded metric: IC50

# return IC50 for FLLPILSQIYT , test system: HLA-A*31:01
≥ 20 µM

====

Test target: HLA-B*48:01
Experiment description: IEDB peptide-MHC binding, purified MHC/direct/fluorescence; filed as Kd, often an IC50 or EC50 that approximates it; bounds were set here for any values at or beyond the usual limits of such assays
Measurement context: source organism: Influenza A virus (A/Quail/Shanghai/8/96(H9N2))
pKd: −log10 of the molar value.
Recorded metric: pKd

State, in one line, measured pKd of LVGGREWSY
≤ 4.70

====

Test target: HLA-A*26:01
Experiment description: IEDB peptide-MHC binding, purified MHC/competitive/fluorescence; filed as Kd, often an IC50 or EC50 that approximates it; bounds were set here for any values at or beyond the usual limits of such assays
Measurement context: source organism: Escherichia coli str. K-12 substr. MG1655
Recorded metric: Kd (nM)
Express it in nM; write the number only.

Please look at this sequence and report its Kd: DVAKIEAPL
324

====

Test target: HLA-B*44:02
Experiment description: IEDB peptide-MHC binding, purified MHC/direct/fluorescence; filed as Kd, often an IC50 or EC50 that approximates it; bounds were set here for any values at or beyond the usual limits of such assays
Measurement context: source organism: Escherichia coli O157:H7
# Kd annotations

Chain sequence: LLKLWIDKV
Test target: HLA-B*44:02
Kd: ≥ 20 µM

Read the next record carefully.
Provide only the value of recorded Kd for ITAGYNRYY
≥ 20 µM
